FYI, the data here is from patent US20220195070A1.

biological target: T1, SG115 (human, UniProt P01857 1-328 = IgG part); assay: ELISA, OD405 against dose (ng/mL, log axis 1-100)
T1 construct: also called modified IgG heavy chain constant region SG115
T1 sequence (P01857 other isoform, or with tags, fused parts or gaps limits assumed): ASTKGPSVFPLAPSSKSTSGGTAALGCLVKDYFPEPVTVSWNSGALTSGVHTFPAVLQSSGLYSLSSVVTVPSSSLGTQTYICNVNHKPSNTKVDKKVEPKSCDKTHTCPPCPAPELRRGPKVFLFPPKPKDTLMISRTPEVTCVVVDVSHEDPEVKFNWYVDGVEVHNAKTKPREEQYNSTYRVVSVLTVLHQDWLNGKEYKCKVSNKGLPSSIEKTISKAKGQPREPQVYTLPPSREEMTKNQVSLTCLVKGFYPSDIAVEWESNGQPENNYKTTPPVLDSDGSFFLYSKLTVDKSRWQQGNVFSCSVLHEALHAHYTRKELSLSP
assay_endpoint: binding result

- SKA0052 (antibody, V domains shown, Recombinant rabbit monoclonal from B-cell cloning, expressed in FreeStyle 293-F cells; the first screen used B-cell culture supernatant; also called Anti-SG115 Antibody; rabbit Anti Fc-Mutation Antibody) VH: QSLEESGGDLVKSGASLTLTCTASGFSFSSSYYMCWVRQAPGKGLEWIACIYTGSNGDTYYASWANGRFTISKASSTTVTLQMTSLTAADTATYFCARYTYDDDGDYTSFNLWGPGTLVTVSS VL: ALVMTQTPSSVSADVGGTVTINCQASQNIYRNLAWYQQKPGQRPKLLIYGASNLEPGVPSRFKGSGSGTEFTLTISDLECDDAATYYCQSVGYSGSVDTFFYAFGGGTEVVVKG: binds
- SKA0117 (antibody, V domains shown, Recombinant rabbit monoclonal from B-cell cloning, expressed in FreeStyle 293-F cells; the first screen used B-cell culture supernatant; also called Anti-SG115 Antibody; rabbit Anti Fc-Mutation Antibody) VH: QSLEESGGDLVKPEGSLTLTCTASGFSFSSSHYMCWVRQAPGKGLEWIACIYAGSSDNTYYASWAKGRFTISKTSSTTVTLQMTSLTAADTATYFCARDTYGYVGYASAGGFFNLWGPGTLVTVSS VL: ALVMTQTPASVSAAVGGTVTINCQASHNIYSVLAWYQQKPGQRPRLLIYGASNLESGVPSRFKGSGSGTEYTLTISDLECDDAATYYCQSAYYSSSTGDNAFGGGTEVVVKG: binds
- SKA0054 (antibody, V domains shown, Recombinant rabbit monoclonal from B-cell cloning, expressed in FreeStyle 293-F cells; the first screen used B-cell culture supernatant; also called Anti-SG115 Antibody; rabbit Anti Fc-Mutation Antibody) VH: QSLEESGGGLVQPEGSLTLTCTASGFSFSSSFWICWVRQAPGKGLEWLACIDAGSSDNTYYANWAKGRFTISKTSSTTVTLQMTSLTDADTATYFCARDRDAAGDAGYGYATSFNLWGPGTLVTVSS VL: AIDMTQTPSSVSAAVGGTVTINCQASESIYSNLAWYQQKPGQRPKLLIYLASTLASGVPSRFKGSGSGTEFTLTISDLECADAATYYCQSVYYDSRGDTFFWAFGGGTEVVVKG: binds
